Entry source: paper PMC13138739

- Study System: T1, OspA ST2 (B. afzelii PKo allele) on the B. burgdorferi HB19-R1 reporter strain (Borrelia afzelii PKo (OspA ST2), UniProt P0A3N7)
- T1 construct: OspA of B. afzelii PKo (ST2); source: B. burgdorferi HB19-R1 (lacks ospA), reporter plasmid, native ospAB promoter of B31, on live cells
- T1 sequence (P0A3N7 17-273): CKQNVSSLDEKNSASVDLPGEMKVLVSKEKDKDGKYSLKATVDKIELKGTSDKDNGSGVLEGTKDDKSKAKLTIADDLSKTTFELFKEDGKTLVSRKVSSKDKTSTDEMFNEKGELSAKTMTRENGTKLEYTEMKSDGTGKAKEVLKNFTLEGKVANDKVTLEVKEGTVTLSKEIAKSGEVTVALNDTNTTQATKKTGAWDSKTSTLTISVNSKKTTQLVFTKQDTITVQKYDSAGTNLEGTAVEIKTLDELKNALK
- Test Summary: flow cytometry on cells; live B. burgdorferi HB19-R1 reporter strains expressing OspA ST1-7, 10 µg/ml mAb, Alexa 647-labeled goat anti-human IgG
- Experimental Conditions: one partner purified

Binder	binding result
227-1, recombinant human monoclonal IgG1 (antibody, V domains shown, source: Expi293 cells, transiently transfected with VH and VL plasmids, purified (Protein A)) VH: EVQLVQSGAEVKMPGESLKISCEVSGYSFTSYWIGWVRQMPGKGLEWMGIIYPGDSDTRYSPSFQGQVTISADKSISTAYLQWSSLKASDTAMYYCTRSISRSGPGFSLSWFFDYWGQGTLVTVSS VL: AIQLTQSPSSLSASVGDRVTITCRASQGISNALAWYQQKPGKAPKLLIYDASSLERGVPSRFSGSGFGTDFTLTISSLQPEDFAIYYCQQFNGFPNTFGQGTRVEIK	binds
227-2, recombinant human monoclonal IgG1 (antibody, V domains shown, source: Expi293 cells, transiently transfected with VH and VL plasmids, purified (Protein A)) VH: EVQVVQSGAEVKKPGESLKISCKGSGYSFTSYWIGWVRQMPGKGLEWMGIIYPGDSDTRYSPSFQGQVTISADKSISTAYLQWSSLKASDTAMYYCVRSISRSGPGYILSWFFDYWGQGSLVTVSS VL: AIQLTQSPSSLSASVGDRVTITCRASQGISNALAWYQQKPGKAPKLLIYDASSLERGVPSRFSGSGFGTDFTLTISSLQPEDFAIYYCQQFNGFPNTFGQGTRVEIK	binds
221-11, recombinant human monoclonal IgG1 (antibody, V domains shown, source: Expi293 cells, transiently transfected with VH and VL plasmids, purified (Protein A)) VH: EVQLVQSGAEVKKPGESLKISCQSSGYRFTIYWIGWVRQMPGKGLEWMGIIWPGDSDTRYSPSFQGQVTISADKSISTAYLQWSSLKASDTAMYYCVRGIGRYSNWFLDYWGQGTLVTVSS VL: AIQLTQSPSSLSASVGDRVTITCRASQGFSSALAWYQQKPGKAPKLLIYDASSLESGVPSRFSGSGSGTDFTLTISSLQPEDFATYYCQQFNSYPLTFGGGTKVEIK	binds
